test system: Escherichia coli TOP10; assay: shrunken log2 fold change of peptide-encoding DNA abundance (4.5 h post-induction vs induction); higher = less antimicrobial activity (less host growth inhibition); details: time post-induction: 4.5 h; library: site-saturation at positions 5, 18, 19, 20
Label class 1 when shrunken log2 fold change is at or above 0.03; otherwise label class 0.

### Prompt Record `RRIRIRPPRLPRPRPRPFNHPRP` ; criterion: shrunken log2 fold change no lower than 0.03. Met?
### Response class 0

### Prompt Record `RRIRCRPPRLPRPRPRPTERPRP` ; criterion: shrunken log2 fold change no lower than 0.03. Met?
### Response class 1

### Prompt Record `RRIRHRPPRLPRPRPRPDRPPRP` ; criterion: shrunken log2 fold change no lower than 0.03. Met?
### Response class 0

### Prompt Record `RRIRVRPPRLPRPRPRPKWLPRP` ; criterion: shrunken log2 fold change no lower than 0.03. Met?
### Response class 1

### Prompt Record `RRIRTRPPRLPRPRPRPEYFPRP` ; criterion: shrunken log2 fold change no lower than 0.03. Met?
### Response class 0

### Prompt Record `RRIRPRPPRLPRPRPRPYMYPRP` ; criterion: shrunken log2 fold change no lower than 0.03. Met?
### Response class 0

### Prompt Record `RRIRPRPPRLPRPRPRPCFMPRP` ; criterion: shrunken log2 fold change no lower than 0.03. Met?
### Response class 0

### Prompt Record `RRIRIRPPRLPRPRPRPELEPRP` ; criterion: shrunken log2 fold change no lower than 0.03. Met?
### Response class 0

### Prompt Record `RRIRRRPPRLPRPRPRPCKNPRP` ; criterion: shrunken log2 fold change no lower than 0.03. Met?
### Response class 1

### Prompt Record `RRIRQRPPRLPRPRPRPQNTPRP` ; criterion: shrunken log2 fold change no lower than 0.03. Met?
### Response class 0

### Prompt Record `RRIRQRPPRLPRPRPRPMQYPRP` ; criterion: shrunken log2 fold change no lower than 0.03. Met?
### Response class 0

### Prompt Record `RRIRDRPPRLPRPRPRPPAVPRP` ; criterion: shrunken log2 fold change no lower than 0.03. Met?
### Response class 1

### Prompt Record `RRIRWRPPRLPRPRPRPNRYPRP` ; criterion: shrunken log2 fold change no lower than 0.03. Met?
### Response class 1

### Prompt Record `RRIRKRPPRLPRPRPRPSKPPRP` ; criterion: shrunken log2 fold change no lower than 0.03. Met?
### Response class 1

###

system: Escherichia coli TOP10; test: shrunken log2 fold change of peptide-encoding DNA abundance (4.5 h post-induction vs induction); higher = less antimicrobial activity (less host growth inhibition); details: time post-induction: 4.5 h; library: site-saturation at positions 5, 18, 19, 20;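 also: peptides expressed intracellularly from a pBAD plasmid library in pooled LB shake-flask culture, induced with 0.3% L-arabinose, DNA abundance read by NGS, three biological replicates, DESeq2 with apeglm shrinkage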
Label t when shrunken log2 fold change is at or above -0.2; otherwise label f.

### Prompt Record `RRIRERPPRLPRPRPRPYSWPRP` ; criterion: shrunken log2 fold change no lower than -0.2. Met?
### Response f

### Prompt Record `RRIRRRPPRLPRPRPRPMVDPRP` ; criterion: shrunken log2 fold change no lower than -0.2. Met?
### Response t

### Prompt Record `RRIRDRPPRLPRPRPRPFVKPRP` ; criterion: shrunken log2 fold change no lower than -0.2. Met?
### Response t

### Prompt Record `RRIRTRPPRLPRPRPRPTHFPRP` ; criterion: shrunken log2 fold change no lower than -0.2. Met?
### Response t

### Prompt Record `RRIRYRPPRLPRPRPRPWIGPRP` ; criterion: shrunken log2 fold change no lower than -0.2. Met?
### Response f

### Prompt Record `RRIRCRPPRLPRPRPRPDLVPRP` ; criterion: shrunken log2 fold change no lower than -0.2. Met?
### Response t

### Prompt Record `RRIRDRPPRLPRPRPRPKHYPRP` ; criterion: shrunken log2 fold change no lower than -0.2. Met?
### Response f

### Prompt Record `RRIRSRPPRLPRPRPRPDERPRP` ; criterion: shrunken log2 fold change no lower than -0.2. Met?
### Response t

### Prompt Record `RRIRRRPPRLPRPRPRPKLKPRP` ; criterion: shrunken log2 fold change no lower than -0.2. Met?
### Response t

### Prompt Record `RRIRFRPPRLPRPRPRPMPSPRP` ; criterion: shrunken log2 fold change no lower than -0.2. Met?
### Response t

### Prompt Record `RRIRVRPPRLPRPRPRPTPPPRP` ; criterion: shrunken log2 fold change no lower than -0.2. Met?
### Response t

### Prompt Record `RRIRYRPPRLPRPRPRPRGNPRP` ; criterion: shrunken log2 fold change no lower than -0.2. Met?
### Response t

### Prompt Record `RRIRTRPPRLPRPRPRPTGQPRP` ; criterion: shrunken log2 fold change no lower than -0.2. Met?
### Response t

### Prompt Record `RRIRVRPPRLPRPRPRPDTHPRP` ; criterion: shrunken log2 fold change no lower than -0.2. Met?
### Response f

### Prompt Record `RRIRPRPPRLPRPRPRPYRHPRP` ; criterion: shrunken log2 fold change no lower than -0.2. Met?
### Response f

The reported numbers originate from the supplement of paper PMC9112550.
